These data points were gathered from the supplement of paper PMC13380429.

Here the recorded cell viability is given for each entry.
- Tested on: Calu-3
- experiment: cell viability relative to DMSO; higher = less toxic
- testParameters: 72 h; 1 nM
Give your result in % as a bare value.

Worked examples, 2 compounds total:
compound: CC(=O)[C@@]12O[C@](C)(c3ccccc3)O[C@@H]1C[C@H]1[C@@H]3CCC4=CC(=O)CC[C@]4(C)[C@H]3CC[C@@]12C [algestone-acetophenide]
reportedMeasurement: 105
--
compound: CCNC(=O)/C=C/c1cccc(Br)c1 [cinromide]
reportedMeasurement: 102

Let's switch to this compound now.
Req: For the compound CNC(=N)NCCC[C@H](N)C(=O)O [targinine] , what cell viability is on record?
Resp: 96.7
